Source of measurements: patent US20240026037A1

- MEASUREMENT_TARGET: T1, Human GPA33 on GPA33+ colorectal cancer cell lines (Colo 205, LS 174T, SW 1222) (human, UniProt Q99795 22-319)
- T1 construct: Endogenous GPA33 on human colorectal cancer cell lines; also called surface human GPA33; GPA33+ tumor cell lines
- T1 sequence: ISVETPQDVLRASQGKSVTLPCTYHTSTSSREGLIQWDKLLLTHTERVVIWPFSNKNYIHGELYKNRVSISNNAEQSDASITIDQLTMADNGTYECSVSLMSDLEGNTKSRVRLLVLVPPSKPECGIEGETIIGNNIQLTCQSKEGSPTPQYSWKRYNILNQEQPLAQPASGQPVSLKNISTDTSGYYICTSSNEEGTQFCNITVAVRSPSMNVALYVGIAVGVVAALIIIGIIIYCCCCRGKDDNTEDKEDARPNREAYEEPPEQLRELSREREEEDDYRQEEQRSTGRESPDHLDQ
- TEST_DETAILS: cell binding to SW1222 Luc cells; IgG format
The following binders are listed with their measured EC50 values.

Completed entries (count: 2):
1. G3A_VK8+VH2 (antibody, V domains shown) VH: EVQLVESGGGLVKPGGSLRLSCAASGFAFSTYDMSWVRQAPGKGLEWVATISSGGSYTYYLDSVKGRFTISRDSAKNSLYLQMNSLRAEDTAVYYCAPTTVVPFAYWGQGTLVTVSA VL: DIQMTQSPSSLSASVGDRVTITCKASQNVRTVVAWYQQKPGKAPKRLIYLASNRHTGVPSRFSGSGSGTEFTLTISNLQPEDFADYYCLQHWSYPLTFGSGTKLEVK    0.993 µg/mL
2. G3A_chimeric (antibody, V domains shown) VH: EVKLVESGGGLVKPGGSLKLSCAASGFAFSTYDMSWVRQTPEKRLEWVATISSGGSYTYYLDSVKGRFTISRDSARNTLYLQMSSLRSEDTALYYCAPTTVVPFAYWGQGTLVTVSA VL: DIVMTQSQKFMSTSVGDRVSITCKASQNVRTVVAWYQQKPGQSPKTLIYLASNRHTGVPDRFTGSGSGTDFTLTISNVQSEDLADYFCLQHWSYPLTFGSGTKLEVK    1 µg/mL

Switching to the query record.
Assign EC50 to the following record: G3A_VK8+VH1 (antibody, V domains shown) VH: EVQLVESGGGLVKPGGSLRLSCAASGFAFSTYDMSWVRQAPGKGLEWVSTISSGGSYTYYADSVKGRFTISRDNAKNSLYLQMNSLRAEDTAVYYCAPTTVVPFAYWGQGTLVTVSA VL: DIQMTQSPSSLSASVGDRVTITCKASQNVRTVVAWYQQKPGKAPKRLIYLASNRHTGVPSRFSGSGSGTEFTLTISNLQPEDFADYYCLQHWSYPLTFGSGTKLEVK 0.568 µg/mL
